Sourced from paper PMC6271274

Give measured CC50 at 48 h for each item. Keep answers brief.
Assay: Cytotoxicity against host cells (MTT assay)
Type: cell-based
Conditions: mouse, J774 macrophage cell line; J774 macrophages, MTT assay, 48 h, maximal concentration 100 μM; read-out: LC50

Enquiry: I have this compound here, O=C1C(O)=C(C(C2=C(O)C(=O)c3ccccc3C2=O)c2ccc(O)cc2)C(=O)c2ccccc21 , and I need its recorded CC50 at 48 h.
Return: > 100 µM

Enquiry: What measured CC50 at 48 h goes with COc1ccc(C(C2=C(O)C(=O)c3ccccc3C2=O)C2=C(O)C(=O)c3ccccc3C2=O)cc1 ?
Return: > 100 µM

Enquiry: Reported CC50 at 48 h, compound CCC(CC)C(C1=C(O)C(=O)c2ccccc2C1=O)C1=C(O)C(=O)c2ccccc2C1=O : ____
Return: 67.4 µM

Enquiry: For CCCCCC(C1=C(O)C(=O)c2ccccc2C1=O)C1=C(O)C(=O)c2ccccc2C1=O , what is its reported CC50 at 48 h?
Return: > 100 µM

Enquiry: Quick check: CC50 at 48 h of O=C1C(O)=C(C(C2=C(O)C(=O)c3ccccc3C2=O)c2ccccc2)C(=O)c2ccccc21 ?
Return: > 100 µM

Enquiry: // returns reported CC50 at 48 h for input O=C1C(O)=C(CC2=C(O)C(=O)c3ccccc3C2=O)C(=O)c2ccccc21
Return: > 100 µM

Enquiry: State the recorded CC50 at 48 h for this entry: O=C1C(O)=C(C(C2=C(O)C(=O)c3ccccc3C2=O)c2ccc(F)cc2)C(=O)c2ccccc21
Return: > 100 µM

Enquiry: Report CC50 at 48 h for O=C1C(O)=C(C(C2=C(O)C(=O)c3ccccc3C2=O)c2ccc([N+](=O)[O-])cc2)C(=O)c2ccccc21 please.
Return: > 100 µM

Enquiry: Item N=C(N)c1ccc(OCCCCCOc2ccc(C(=N)N)cc2)cc1 [Pentamidine, reference compound] has what recorded CC50 at 48 h?
Return: 73 µM

---

Consider the following molecules; for each one, report its pIC50.
Tested on: L. braziliensis promastigotes
Experiment: In vitro activity against L. braziliensis promastigotes
Assay type: cell-based, Leishmania braziliensis
Conditions: Leishmania braziliensis; L. braziliensis promastigotes, 48 h, maximal concentration 100 μM
// returns pIC50 (minus log10 of molar concentration), number only

Enquiry: Provide value of pIC50 for this record tested with L. braziliensis promastigotes: CCC(CC)C(C1=C(O)C(=O)c2ccccc2C1=O)C1=C(O)C(=O)c2ccccc2C1=O [Compound 3c]
Return: 4.46

Enquiry: What value of pIC50 on L. braziliensis promastigotes does N=C(N)c1ccc(OCCCCCOc2ccc(C(=N)N)cc2)cc1 [Pentamidine, reference compound] have?
Return: 6.10

Enquiry: # returns recorded pIC50 (system: L. braziliensis promastigotes) for O=C1C(O)=C(C(C2=C(O)C(=O)c3ccccc3C2=O)c2ccc(F)cc2)C(=O)c2ccccc21 [Compound 3h]
Return: 6.10

Enquiry: Could you share what pIC50 was measured for O=C1C(O)=C(CC2=C(O)C(=O)c3ccccc3C2=O)C(=O)c2ccccc21 [Compound 3a] , tested on L. braziliensis promastigotes?
Return: 6.05

Enquiry: Recall the recorded pIC50 for COc1ccc(C(C2=C(O)C(=O)c3ccccc3C2=O)C2=C(O)C(=O)c3ccccc3C2=O)cc1 [Compound 3e] with L. braziliensis promastigotes and state it.
Return: 6.05

Enquiry: Form: Entry = CCCCCC(C1=C(O)C(=O)c2ccccc2C1=O)C1=C(O)C(=O)c2ccccc2C1=O [Compound 3b] | System = L. braziliensis promastigotes | pIC50 = ____
Return: 5.28

Enquiry: Please provide the recorded pIC50 for O=C1C(O)=C(C(C2=C(O)C(=O)c3ccccc3C2=O)c2ccc(O)cc2)C(=O)c2ccccc21 [Compound 3f] , tested on L. braziliensis promastigotes.
Return: 4.41

Enquiry: Find the measured pIC50: item O=C1C(O)=C(C(C2=C(O)C(=O)c3ccccc3C2=O)c2ccc([N+](=O)[O-])cc2)C(=O)c2ccccc21 [Compound 3g] , target or system L. braziliensis promastigotes.
Return: 5.55

---

Tested on: L. amazonensis promastigotes
Assay: In vitro activity against L. amazonensis promastigotes
Type: cell-based
Settings: Leishmania amazonensis, 48 h, maximal concentration 100 μM
MEASURED_PARAMETER: IC50 (µM)
State just the number; it will be interpreted in µM.

Enquiry: Fill blank: measured IC50 of the compound O=C1C(O)=C(C(C2=C(O)C(=O)c3ccccc3C2=O)c2ccc(F)cc2)C(=O)c2ccccc21 [Compound 3h] is ____.
Return: 0.6

Enquiry: IC50 for O=C1C(O)=C(C(C2=C(O)C(=O)c3ccccc3C2=O)c2ccccc2)C(=O)c2ccccc21 [Compound 3d] ?
Return: 0.3

Enquiry: # IC50 lookup, item CCC(CC)C(C1=C(O)C(=O)c2ccccc2C1=O)C1=C(O)C(=O)c2ccccc2C1=O [Compound 3c]
Return: 0.4

Enquiry: Field request: IC50 | item: N=C(N)c1ccc(OCCCCCOc2ccc(C(=N)N)cc2)cc1 [Pentamidine, reference compound]
Return: 2.3

Enquiry: Look at this compound and give its reported IC50. O=C1C(O)=C(CC2=C(O)C(=O)c3ccccc3C2=O)C(=O)c2ccccc21 [Compound 3a]
Return: 71

Enquiry: Fill blank: measured IC50 of the compound CCCCCC(C1=C(O)C(=O)c2ccccc2C1=O)C1=C(O)C(=O)c2ccccc2C1=O [Compound 3b] is ____.
Return: 5.2

Enquiry: Requested field: IC50. Item: O=C1C(O)=C(C(C2=C(O)C(=O)c3ccccc3C2=O)c2ccc(O)cc2)C(=O)c2ccccc21 [Compound 3f]
Return: 68.7

Enquiry: If you can, please state the reported IC50 value of O=C1C(O)=C(C(C2=C(O)C(=O)c3ccccc3C2=O)c2ccc([N+](=O)[O-])cc2)C(=O)c2ccccc21 [Compound 3g] .
Return: 7.7
